These data points were gathered from ChEMBL document CHEMBL5365461.

assay name: Volume of distribution at steady state in CD-1 mouse at 1 mg/kg, iv measured after 24 hrs by LC-MS/MS analysis
Assay type: ADME, organism-based
condition: in vivo, read-out: Vdss
property: Vd (L/kg)
Answers are plain numbers, in L/kg.

Cc1cc(=O)oc2cc(OCCCN3CCC(C(=O)Nc4ncc(SCc5ncc(C(C)(C)C)o5)s4)CC3)cc(O)c12 | 5.7

Req: I am curious: what Vd value has been reported for Cc1cc(=O)oc2cc(O)cc(OCCCCCN3CCC(C(=O)Nc4ncc(SCc5ncc(C(C)(C)C)o5)s4)CC3)c12 ?
Resp: 10.5

---

tested on: Cyclin-dependent kinase 9 (Homo sapiens)
assay name: Inhibition of GST-fused human full-length CDK9 (1 to 372(end) residues)/N-terminal GST-fused His-tagged human full-length CyclinT1 (1 to 726(end) residues) expressed in baculovirus expression system at 100 nM using CDK7/9 tide as substrate incubated for 120 mins in presence of ATP by ADP-Glo Kinase assay relative to control
property: inhibition (%)
One number for each entry, in %.

Reference set (5 entries):
Cc1cc(=O)oc2cc(OCCOCCN3CCC(C(=O)Nc4ncc(SCc5ncc(C(C)(C)C)o5)s4)CC3)cc(O)c12 | 71
Cc1cc(=O)oc2cc(O)cc(OCCOCCN3CCC(C(=O)Nc4ncc(SCc5ncc(C(C)(C)C)o5)s4)CC3)c12 | 63
Cc1cc(=O)oc2cc(OCCCCCN3CCC(C(=O)Nc4ncc(SCc5ncc(C(C)(C)C)o5)s4)CC3)cc(O)c12 | 57
COc1ccc(-c2cc(=O)oc3cc(OCCCN4CCC(C(=O)Nc5ncc(SCc6ncc(C(C)(C)C)o6)s5)CC4)cc(O)c23)cc1 | 83
CC(C)(C)c1cnc(CSc2cnc(NC(=O)C3CCN(CCCOc4cc(O)c5c(-c6ccccc6)cc(=O)oc5c4)CC3)s2)o1 | 86

Kindly give each listed record's inhibition.
1. Cc1cc(=O)oc2cc(O)cc(OCCCCN3CCC(C(=O)Nc4ncc(SCc5ncc(C(C)(C)C)o5)s4)CC3)c12
2. CC(C)(C)c1cnc(CSc2cnc(NC(=O)C3CCN(CCCOc4cccc5oc(=O)cc(-c6ccccc6)c45)CC3)s2)o1

Resp:
79
36

---

assay name: AUC(0 to t) in CD-1 mouse at 5 mg/kg, ip measured after 24 hrs by LC-MS/MS analysis
Type: ADME, organism-based
Design: dose 5 mg/kg, time 24 hrs, route ip
condition: in vivo
property: AUC(0-t) at 24 h (ng·h/mL)
Give bare numbers, in ng·h/mL.

Cc1cc(=O)oc2cc(O)cc(OCCCCCN3CCC(C(=O)Nc4ncc(SCc5ncc(C(C)(C)C)o5)s4)CC3)c12 | 156

Now look at this one.
Req: What value of AUC(0-t) at 24 h has been recorded for this entry: Cc1cc(=O)oc2cc(OCCCN3CCC(C(=O)Nc4ncc(SCc5ncc(C(C)(C)C)o5)s4)CC3)cc(O)c12
Resp: 143

---

Record form. Attribute: half-life. Fill in for each entry.
assay name: Half life in CD-1 mouse at 1 mg/kg, iv measured after 24 hrs by LC-MS/MS analysis
Format: ADME, organism-based
condition: in vivo
Answers are plain numbers, in h.

Cc1cc(=O)oc2cc(OCCCN3CCC(C(=O)Nc4ncc(SCc5ncc(C(C)(C)C)o5)s4)CC3)cc(O)c12 | 1.03

Now look at this one.
Req: # get_value(readout='half-life', item= Cc1cc(=O)oc2cc(O)cc(OCCCCCN3CCC(C(=O)Nc4ncc(SCc5ncc(C(C)(C)C)o5)s4)CC3)c12 )
Resp: 1.97
